// data source = paper PMC4336329

The entries below come with measured hERG current change (%, negative = inhibition) at 1uM values attached.
# targetOrSystem: human ether-à-go-go-related gene (hERG) potassium channel (human)
# Sequence (Q12809 whole entry, looked up): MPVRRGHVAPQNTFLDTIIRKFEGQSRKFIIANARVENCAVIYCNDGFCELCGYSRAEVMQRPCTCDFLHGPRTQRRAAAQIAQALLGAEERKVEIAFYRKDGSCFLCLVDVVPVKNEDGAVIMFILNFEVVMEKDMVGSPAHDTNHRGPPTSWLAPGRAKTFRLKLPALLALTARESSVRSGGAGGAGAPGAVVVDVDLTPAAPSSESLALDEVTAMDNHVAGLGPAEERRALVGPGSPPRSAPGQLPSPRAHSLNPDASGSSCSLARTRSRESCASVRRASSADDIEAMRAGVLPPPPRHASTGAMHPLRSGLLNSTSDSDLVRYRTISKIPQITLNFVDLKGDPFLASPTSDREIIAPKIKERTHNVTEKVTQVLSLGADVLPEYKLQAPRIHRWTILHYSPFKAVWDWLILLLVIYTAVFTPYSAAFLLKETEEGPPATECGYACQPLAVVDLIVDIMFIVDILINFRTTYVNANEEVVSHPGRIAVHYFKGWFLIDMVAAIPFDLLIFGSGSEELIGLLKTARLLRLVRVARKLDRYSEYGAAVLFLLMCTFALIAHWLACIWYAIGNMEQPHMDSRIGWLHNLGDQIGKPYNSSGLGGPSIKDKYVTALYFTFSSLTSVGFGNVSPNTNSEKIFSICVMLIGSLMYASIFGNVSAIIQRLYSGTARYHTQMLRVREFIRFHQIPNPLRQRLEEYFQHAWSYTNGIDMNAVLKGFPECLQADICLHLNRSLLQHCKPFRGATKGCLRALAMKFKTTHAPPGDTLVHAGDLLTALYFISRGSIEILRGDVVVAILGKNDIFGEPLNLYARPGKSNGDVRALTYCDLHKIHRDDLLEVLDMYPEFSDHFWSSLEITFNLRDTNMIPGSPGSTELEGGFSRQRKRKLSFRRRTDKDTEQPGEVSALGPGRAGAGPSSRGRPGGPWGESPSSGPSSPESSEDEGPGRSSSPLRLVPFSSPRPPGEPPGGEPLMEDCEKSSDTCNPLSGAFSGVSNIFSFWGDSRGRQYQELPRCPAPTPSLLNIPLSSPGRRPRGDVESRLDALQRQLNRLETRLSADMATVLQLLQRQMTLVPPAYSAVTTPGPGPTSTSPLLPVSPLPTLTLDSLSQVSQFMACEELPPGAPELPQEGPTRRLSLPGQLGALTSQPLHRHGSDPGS
# experimentNotes: primary screen, population patch clamp on CHO cells stably expressing hERG; higher = less effect of the substance
The whole screen tested about 310,000 compounds, of which about 2,200 (0.71%) showed an effect of 50% or more. The effect is printed as a negative number. Many of the other results were omitted from the sample, so strong results are more common in it than they were.
endpointName: hERG current change (%, negative = inhibition) at 1uM (%)

{"compound": "CN(CC(=O)Nc1cccc(F)c1)C(=O)c1cc(S(=O)(=O)N2CCCCC2)ccc1N1CCOCC1", "targetOrSystem": "human ether-à-go-go-related gene (hERG) potassium channel (human)", "assayValue": 3.68}
{"compound": "CCC1(C)Cc2ccccc2-c2nc3n(c(=O)c21)CCS3 (centres unmarked)", "targetOrSystem": "human ether-à-go-go-related gene (hERG) potassium channel (human)", "assayValue": 12}
{"compound": "CC(=O)Nc1ccc(-c2nnc(SCc3ccccc3C#N)n2C)cc1", "targetOrSystem": "human ether-à-go-go-related gene (hERG) potassium channel (human)", "assayValue": -5.5}
{"compound": "COc1ccc(-c2coc3c(C)c4oc(=O)c(CCC(=O)O)c(C)c4cc23)cc1", "targetOrSystem": "human ether-à-go-go-related gene (hERG) potassium channel (human)", "assayValue": 6.19}
{"compound": "CCOC(=O)COc1c(-c2ccc(OC)cc2)oc2ccccc2c1=O", "targetOrSystem": "human ether-à-go-go-related gene (hERG) potassium channel (human)", "assayValue": 9.81}
